Where do the numbers come from? From the supplement of paper PMC6555819.

Test system: FXR:RXRa (NR concentration 270 nM, RXRa partner concentration 90 nM)
METHOD_NOTES: PBM binding z-score (relative to random genomic background probes); higher = stronger binding; sequences stand for … in GC…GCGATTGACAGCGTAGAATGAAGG
READOUT_TYPE: PBM binding z-score

For every item in the list below, what is its measured PBM binding z-score?
1. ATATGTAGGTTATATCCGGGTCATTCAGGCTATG
2. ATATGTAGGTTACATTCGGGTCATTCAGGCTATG
3. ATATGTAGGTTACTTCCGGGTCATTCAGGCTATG
4. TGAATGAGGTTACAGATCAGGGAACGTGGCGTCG
5. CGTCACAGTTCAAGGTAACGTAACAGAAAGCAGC
6. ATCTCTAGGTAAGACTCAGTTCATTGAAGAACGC
7. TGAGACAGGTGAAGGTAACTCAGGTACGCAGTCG

1. 2.15
2. 2.91
3. 2.58
4. 1.82
5. 2.2
6. 0.66
7. -0.213

Lookup result for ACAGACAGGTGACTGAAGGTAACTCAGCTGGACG ; measured PBM binding z-score: 0.0674

----------
System: THRa:RXRa (NR concentration 90 nM, RXRa partner concentration 90 nM)
METHOD_NOTES: PBM binding z-score (relative to random genomic background probes); higher = stronger binding; sequences stand for … in GC…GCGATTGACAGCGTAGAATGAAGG
READOUT_TYPE: PBM binding z-score

Answered examples (3):
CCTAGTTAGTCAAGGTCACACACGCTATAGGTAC; 4.27
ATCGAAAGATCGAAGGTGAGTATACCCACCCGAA; 0.17
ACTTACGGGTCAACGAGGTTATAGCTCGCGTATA; 4.18

For every item in the list below, what is its measured PBM binding z-score?
1. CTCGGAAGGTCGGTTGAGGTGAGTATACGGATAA
2. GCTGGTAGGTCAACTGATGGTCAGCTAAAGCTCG
3. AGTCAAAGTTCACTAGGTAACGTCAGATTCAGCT
4. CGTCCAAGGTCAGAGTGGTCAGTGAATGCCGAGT
5. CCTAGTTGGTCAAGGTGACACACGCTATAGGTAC

4.59
2.54
1.96
3.59
2.06

----------
System: PPARg:RXRa 30nM:10nM, anti-RXR (NR concentration 30 nM, RXRa partner concentration 10 nM)
METHOD_NOTES: PBM binding z-score (relative to random genomic background probes); higher = stronger binding; sequences stand for … in GC…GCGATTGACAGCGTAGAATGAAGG
Entry flag: Condition met if PBM binding z-score reaches 0.9; Condition not met if it does not.

Completed entries (count: 10):
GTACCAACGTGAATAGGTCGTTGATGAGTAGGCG; Condition not met
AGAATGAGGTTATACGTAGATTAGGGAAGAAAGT; Condition met
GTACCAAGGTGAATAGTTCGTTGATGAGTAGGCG; Condition not met
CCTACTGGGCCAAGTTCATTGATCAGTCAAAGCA; Condition not met
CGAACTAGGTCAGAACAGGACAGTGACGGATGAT; Condition met
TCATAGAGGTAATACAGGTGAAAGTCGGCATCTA; Condition met
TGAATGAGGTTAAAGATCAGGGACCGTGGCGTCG; Condition met
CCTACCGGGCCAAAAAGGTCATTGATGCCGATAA; Condition not met
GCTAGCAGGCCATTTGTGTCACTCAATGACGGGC; Condition not met
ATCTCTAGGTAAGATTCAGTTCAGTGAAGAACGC; Condition not met

Answer whether PBM binding z-score of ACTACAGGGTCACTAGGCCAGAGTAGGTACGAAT is greater than or equal to 0.9.
Condition met

Answer whether PBM binding z-score of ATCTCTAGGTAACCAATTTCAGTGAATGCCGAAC is greater than or equal to 0.9.
Condition not met
